Answer each item with its documented ΔTm.
Give the number; °C is assumed, so skip it.

Request - read-out ΔTm | tested on Serine/threonine-protein kinase 4 (Homo sapiens) | molecule O=c1c2ccccc2[nH]c(=S)n1CCN1CCC(=C(c2ccc(F)cc2)c2ccc(F)cc2)CC1 2

Can you look up ΔTm on Serine/threonine-protein kinase 4 (Homo sapiens) for O=C1NC(=O)C(c2c[nH]c3ccccc23)=C1c1c[nH]c2ccccc12 ? 4.1

Request - read-out ΔTm | tested on Serine/threonine-protein kinase 4 (Homo sapiens) | molecule CN(C)S(=O)(=O)c1ccc2c(c1)/C(=C/c1cc3c([nH]1)CCCC3)C(=O)N2 8.7

# returns recorded ΔTm (system: Serine/threonine-protein kinase 4 (Homo sapiens)) for O=c1c(-c2ccc(F)cc2)c(-c2ccncc2)[nH]n1-c1ccc(Cl)cc1 1.8

Can you look up ΔTm on Serine/threonine-protein kinase 4 (Homo sapiens) for COc1cc2ncnc(Nc3cccc(Br)c3)c2cc1OC ? 1.5

Request - read-out ΔTm | tested on Serine/threonine-protein kinase 4 (Homo sapiens) | molecule CN(c1cccnc1)c1cc2c(Nc3ccc(F)c(Cl)c3)c(C#N)cnc2cn1 0.4

I'm curious: which ΔTm was measured for O=C1Nc2ccc(I)cc2/C1=C\c1cc(Br)c(O)c(Br)c1 tested on Serine/threonine-protein kinase 4 (Homo sapiens)? 4.1

Record lookup: for Serine/threonine-protein kinase 4 (Homo sapiens), what ΔTm belongs to O=Nc1c(-c2c(O)[nH]c3ccccc23)[nH]c2ccccc12 ? 7.8

For the record O=C1Cc2c([nH]c3ccc(Br)cc23)-c2ccccc2N1 , what value of ΔTm is listed for Serine/threonine-protein kinase 4 (Homo sapiens)? 4.9

Test system Serine/threonine-protein kinase 4 (Homo sapiens); read-out ΔTm; what value for CC(C)c1cc(/C=C(\C#N)C(=O)NCCCc2ccccc2)cc(C(C)C)c1O ? 2.6

Give recorded ΔTm with Serine/threonine-protein kinase 4 (Homo sapiens) for the following molecule: COc1cc(O)c2c(c1)oc(=O)c1c3cc(O)c(O)cc3oc21 2.4
